Reference source: PubChem BioAssay (NCI)

system: M14 melanoma; assay: NCI-60 one-dose screen, 48 h (100 = growth as untreated, 0 = no growth, -100 = all killed); conditions: 10 µM
Compounds without any hit were thinned out: in the full panel of roughly 83,000, 20% have a hit.
ATTRIBUTE MEASURED: growth (%)
Give just the number in %; leave the unit off.

query: Consider the molecule COc1ccc2[nH]cc(/C=N/Nc3cccc(Cl)n3)c2c1 . State its measured growth.
result: 49.5

query: Report growth, nothing else, for this molecule: CN1C(=O)N(C)C2SC(N/N=C/c3ccccc3F)=NC21 (centres undefined)
result: 36.5

query: # return recorded growth for entry O=C(Cn1nc(-c2ccccc2)ccc1=O)NN1C(=O)c2ccccc2C1=O
result: 107

query: Report growth, nothing else, for this molecule: C/C(=C\CC/C=C(\C)CC/C=C(\C)CC[C@@H](O)C(C)(C)O)CC/C=C(\C)CC[C@@H](O)C(C)(C)O
result: 22.7

----------
system: SF-539 CNS; assay: NCI-60 one-dose screen, 48 h; conditions: 10 µM
Compounds without any hit were thinned out: in the full panel of roughly 83,000, 20% have a hit. Calls of active or inactive are those of the source. How the source made its calls: active means growth percent below 10; inactive means the rest.
Reply using exactly one outcome from class 1 for active, class 0 for inactive

query: Field: outcome | Entry: COc1cccc(/C=C2\N=C(C)N(CCc3ccc(S(N)(=O)=O)cc3)C2=O)c1
result: class 0

query: Lab log entry: CN(C)c1cccc2c(S(=O)(=O)Nc3cccc(-c4csc(NC(=O)CCCCCN5CCN(c6cc7c(cc6F)C(=O)N(C6CCC(=O)NC6=O)C7=O)CC5)n4)c3)cccc12 (stereo unspecified) — outcome as called in the assay?
result: class 0

query: Status in this test for Cn1cc(/C=N/Nc2ccnc3cc(Cl)ccc23)c2ccccc21 ?
result: class 1

query: Test call, this molecule: CC(=O)Oc1ccccc1C(=O)Oc1ccc(C(=O)/C=C/c2ccncc2)cc1
result: class 1

query: Would you mind telling me which call this test gave COc1cc(NC(=O)CSc2nnc(-c3ccc4nc(-c5ccc(Cl)cc5)[nH]c4c3)o2)cc(OC)c1OC ?
result: class 0

query: Which outcome did this test record for the molecule CC(=O)Nc1ccc(-c2cn(-c3cccc(C(=O)Nc4ccc(F)c(C(F)(F)F)c4)c3)nn2)cn1 ?
result: class 0

query: Test call for this molecule, please: CNCc1cccc2c1OCCCCCC[C@@](C)(O)CC1(CC1)S(=O)(=O)c1ccc(cc1)-c1cnc(N)c(n1)C(=O)N2
result: class 1

query: Outcome? Cc1ccc(-c2cc(-c3cc4ccccc4nc3Cl)[nH]c(=O)n2)cc1
result: class 1

query: I'd appreciate the recorded outcome for COc1ccc2cc([C@H](C)C(=O)NCc3ccccc3)ccc2c1 from this test.
result: class 1

query: GET /call?item= O=S(=O)(c1ccc(Cl)cc1)c1nc(-c2ccccc2)oc1S(=O)(=O)c1ccc(Cl)cc1 returns the recorded outcome of this test.
result: class 0

query: Check the results log: what was the call for CCOC(=O)N/C(=C1/OCCN1C)[P+](c1ccccc1)(c1ccccc1)c1ccccc1 ?
result: class 0

----------
system: NCI/ADR-RES ovarian; test: NCI-60 one-dose screen, 48 h; conditions: 10 µM
The panel holds about 83,000 compounds, 20% with a hit somewhere; the sample as a whole holds those more often. The source made the active and inactive calls. Rule for the calls: active = growth percent below 10; inactive = the rest.
Outcome (select one): active, inactive

query: How was O=C1Nc2ccc(F)cc2/C1=C/c1cccc(OCc2ccccn2)c1 classified in this test?
result: active

query: Please share the test call associated with CCNCCCn1c2c(c3cc(OC)c(OC)cc3c1=O)C(=O)c1cc3c(nc1-2)OCO3 .
result: active

query: Test call, this compound: Cc1ccc2nc(-c3ccc(-c4nnc(SCC(=O)Nc5ccc(Br)cc5)o4)cc3)[nH]c2c1
result: inactive

query: Short answer needed: outcome of this test for NS(=O)(=O)c1ccc(NC(=O)CSc2ccc(-c3ccccc3)nn2)c(Br)c1 ?
result: inactive

query: Please state the recorded outcome for this compound: Cc1cc(=O)oc2cc(OCCCCOc3ccc(/C=C/C(=O)Nc4cccc(Cl)c4)cc3)ccc12
result: inactive

query: Which outcome was entered for the compound O=C1CCC(N2Cc3cc(CC(=O)Nc4ccc(N5CCCCC5)cc4)ccc3C2=O)C(=O)N1 (stereo unspecified) in this test?
result: inactive

query: Status in this test for N#C/C(=C\c1ccc(N(c2ccccc2)c2ccccc2)cc1)C(N)=O ?
result: inactive

query: I'd appreciate the recorded outcome for O=S(=O)(c1ccc(Cl)cc1)c1nc(-c2ccccc2)oc1S(=O)(=O)c1ccc(Cl)cc1 from this test.
result: inactive

query: Just curious, what result did O=C(Cn1nc(-c2ccccc2)ccc1=O)NNC(=S)NC1CCCCC1 get here?
result: inactive

query: Which outcome was entered for the compound Cc1ccc(S(=O)(=O)c2nc(-c3ccccc3)oc2S(=O)(=O)CC(=O)N2CCCC2)cc1 in this test?
result: active

query: Field: outcome | Entry: O=C(Nc1ccc(F)c(Cl)c1)c1cc(-c2ccc(F)cc2F)ccc1O
result: active

query: In this assay, the call recorded for CO[C@H]1CSS[C@@H]1Cn1nc(-c2ccc(Oc3ccccc3)cc2)c2c(N)ncnc21 was what?
result: inactive

query: State the result this test recorded for Cc1ccn2c(C(=O)c3ccc(Br)cc3)cc(-c3cc(-c4ccc(N(C)C)cc4)c(C#N)c(N)n3)c2c1 .
result: inactive

query: Outcome logged for COc1cc(OC(F)(F)F)ccc1C(=O)Nc1sc2c(c1C#N)CCC(=O)C2 in this assay:
result: inactive

query: Which result was noted for this compound in the test: COc1ccc(-c2cc(-c3cc(C(=O)c4ccccc4)n4ccc(C)cc34)nc(N)c2C#N)cc1
result: inactive

query: Assay outcome for Cc1ccc(/C=C/C(=O)c2ccc(S(=O)(=O)NCCNc3nc(Nc4ccc(F)cc4)nc(N(C)C)n3)cc2)cc1 : what was it?
result: inactive

query: Record lookup: outcome of this test for Cc1noc2c(Cc3ccccc3)nn(CC(=O)N/N=C/c3ccc(Br)cc3)c(=O)c12 ?
result: inactive

query: Give the logged outcome of this assay for the following compound: Cc1ccc(/C(N)=N/c2sc(-c3ccccc3)nc2-c2ccccc2)cc1
result: inactive

query: Please state the recorded outcome for this compound: OCc1[nH]nc2cc(Nc3ncc4ccc(Br)c(OC5CCC(O)CC5)c4n3)ccc12 (stereo unspecified)
result: active

query: Please let me know the test result on file for CC(=O)Oc1ccccc1C(=O)Oc1ccc(C(=O)/C=C/c2ccncc2)cc1 .
result: inactive

query: # fetch the recorded call for CCCCOc1ccc(Nc2nc3ccccc3nc2Nc2ccc(OCCCC)cc2)cc1 here
result: inactive

query: What did the test return for COc1cccc(-c2ccnc(/N=C(\N)Nc3ccc(S(=O)(=O)Nc4nc(C)cc(C)n4)cc3)n2)c1 ?
result: inactive

query: Each compound tested received a call. Report the one for C#CCNC(=O)CCC(=O)OC[C@]12CC[C@@H](C(=C)C)[C@@H]1C1CC[C@@H]3[C@@]4(C)CCCNC(C)(C)[C@@H]4CC[C@@]3(C)[C@]1(C)CC2 (stereo partly specified) .
result: active

query: Dear colleague, could you share the recorded outcome for CN1C(=O)/C(=C/c2nccs2)SC1=S when you have a moment?
result: inactive

query: Tell me the assay call for Cc1cccc2cc(-c3cc(-c4ccccc4)nc(=O)[nH]3)c(Cl)nc12 please.
result: inactive

query: What call does the record list for CNC(=O)c1cc(-c2ccc(NC(=O)Nc3ccc(C)cc3)cc2)nc2cccnc12 ?
result: inactive

query: Call for entry COc1ccc(-c2ccc(/C=N/NC(=O)c3[nH]c4ccc(Br)cc4c3-c3ccccc3)s2)cc1 :
result: inactive

query: Dear all, I need the recorded test outcome for COc1ccc2nc(Cl)c(-c3cc(-c4ccccc4)nc(=O)[nH]3)cc2c1 , thank you.
result: active

query: Hello, I am checking results. What call was entered for O=C(Nc1ccccc1)Nc1nc2ccccc2s1 ?
result: inactive

query: Name the outcome recorded for O=C(Nc1ccc(OCC(=O)c2ccccc2)cc1)Nc1ccc(Cl)c(C(F)(F)F)c1 in the assay.
result: inactive

query: Tell me the recorded outcome of this test for O=C1Nc2ccc(Cl)cc2/C1=C/c1cccc(OCc2ccccn2)c1 .
result: active
